Test details: Inhibition of bovine trypsin
Design: species or system Bos taurus
pIC50: −log10 of the molar value.
# pIC50 annotations

Sample records with pIC50:
CC[C@@H](NC(=O)N1CC(=O)NC[C@@H](Cc2cc(Cl)ccc2OC)C1=O)c1ccc(C(=O)O)c(N)c1
< 4.00
CC[C@@H](NC(=O)N1CC(=O)NC[C@H](Cc2cc(Cl)ccc2OC)C1=O)c1ccc(C(=O)O)c(N)c1
< 4.00

With those in mind, consider the next molecule.
Data request: State the recorded pIC50 for this entry: `CC[C@@H](NC(=O)N1CC(=O)NC[C@@H](Cc2cc(Cl)ccc2OC)C1=O)c1cccc(C(=O)O)c1`
Data returned: < 4.00

----------
Test details: Stability in aqueous solution in pH 7 at 10 uM
Assay type: physicochemical
Consider the reported half-life at 10 µM of an entry and match it to a band in low = under 7 h, medium = from 7 h up to 8 h, high = 8 h and over

Some entries whose results are on file:
COc1ccc(Cl)cc1CC1CNC(=O)CN(C(=O)N(C)Cc2ccccc2)C1=O (racemic)
high
CC[C@@H](NC(=O)N1CC(=O)NC[C@@H](Cc2cc(Cl)ccc2OC)C1=O)c1cccc(C(=O)O)c1
medium
COc1ccc(Cl)cc1CC1CNC(=O)CN(C(=O)NC(c2ccccc2)c2ccccc2)C1=O (racemic)
high
COc1ccc(Cl)cc1CC1CNC(=O)CN(C(=O)NC(C)c2ccccc2)C1=O (stereo unspecified)
low
COc1ccc(Cl)cc1CC1CNC(=O)CN(C(=O)NCCc2ccccc2)C1=O (racemic)
high

Data request: Category of CCCC(NC(=O)N1CC(=O)NCC(Cc2cc(Cl)ccc2OC)C1=O)c1ccccc1 (stereo unspecified) :
Data returned: medium

Data request: Then `CC[C@@H](NC(=O)N1CC(=O)NC[C@@H](Cc2cc(Cl)ccc2OC)C1=O)c1ccc(C(=O)O)c(N)c1` ?
Data returned: low

Data request: Same for `CC[C@@H](NC(=O)N1CC(=O)NC[C@H](Cc2cc(Cl)ccc2OC)C1=O)c1ccc(C(=O)O)c(N)c1`
Data returned: low

Data request: Continue with CCC(NC(=O)N1CC(=O)NCC(Cc2cc(Cl)ccc2OC)C1=O)c1ccccc1 (stereo unspecified)
Data returned: low

----------
Experimental target: Chymase (Homo sapiens, UniProt P23946)
Sequence (P23946 whole entry): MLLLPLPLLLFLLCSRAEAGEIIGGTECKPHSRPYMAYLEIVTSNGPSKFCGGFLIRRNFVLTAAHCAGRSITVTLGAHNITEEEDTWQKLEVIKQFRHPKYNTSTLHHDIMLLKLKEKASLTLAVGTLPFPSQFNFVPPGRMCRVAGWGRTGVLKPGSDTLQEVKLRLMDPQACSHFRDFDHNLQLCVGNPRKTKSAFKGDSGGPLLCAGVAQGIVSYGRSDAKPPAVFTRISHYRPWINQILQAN
Test details: Inhibition of human recombinant chymase
pIC50: −log10 of the molar value.
Property measured: pIC50

Data request: Param item = COc1ccc(Cl)cc1CC1CNC(=O)CN(C(=O)N(C)Cc2ccccc2)C1=O (racemic) ; retrieve measured pIC50.
Data returned: < 4.00

Data request: Now consider COc1ccc(Cl)cc1CC1CNC(=O)CN(C(=O)NC(c2ccccc2)c2ccccc2)C1=O (racemic) .
Data returned: < 4.00

----------
IC50 for assorted compounds
Test details: Inhibition of human elastase

CC[C@@H](NC(=O)N1CC(=O)NC[C@@H](Cc2cc(Cl)ccc2OC)C1=O)c1cccc(C(=O)O)c1
> 100 µM
CC[C@@H](NC(=O)N1CC(=O)NC[C@H](Cc2cc(Cl)ccc2OC)C1=O)c1ccc(C(=O)O)c(N)c1
> 100 µM

Kindly review the next compound as well.
Data request: Data request, read-out IC50, for `CC[C@@H](NC(=O)N1CC(=O)NC[C@@H](Cc2cc(Cl)ccc2OC)C1=O)c1ccc(C(=O)O)c(N)c1`
Data returned: > 100 µM

----------
Experimental target: Cathepsin G (Homo sapiens)
Sequence (P08311 whole entry): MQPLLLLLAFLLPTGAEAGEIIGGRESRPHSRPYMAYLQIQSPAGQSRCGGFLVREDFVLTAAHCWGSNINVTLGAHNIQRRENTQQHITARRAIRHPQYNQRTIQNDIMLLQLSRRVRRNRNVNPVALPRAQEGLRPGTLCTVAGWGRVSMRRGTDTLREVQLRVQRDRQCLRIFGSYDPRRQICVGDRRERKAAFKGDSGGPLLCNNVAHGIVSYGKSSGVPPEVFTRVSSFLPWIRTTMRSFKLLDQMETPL
Property measured: IC50 (µM)
Kindly answer with a numeric value in µM, unit omitted.

Data request: What measured IC50 is associated with `CC[C@@H](NC(=O)N1CC(=O)NC[C@H](Cc2cc(Cl)ccc2OC)C1=O)c1ccc(C(=O)O)c(N)c1` on Cathepsin G (Homo sapiens)?
Data returned: 28
